# assayed_target: Muscarinic acetylcholine receptor M4 (Homo sapiens, UniProt P08173)
# Sequence (P08173 whole entry): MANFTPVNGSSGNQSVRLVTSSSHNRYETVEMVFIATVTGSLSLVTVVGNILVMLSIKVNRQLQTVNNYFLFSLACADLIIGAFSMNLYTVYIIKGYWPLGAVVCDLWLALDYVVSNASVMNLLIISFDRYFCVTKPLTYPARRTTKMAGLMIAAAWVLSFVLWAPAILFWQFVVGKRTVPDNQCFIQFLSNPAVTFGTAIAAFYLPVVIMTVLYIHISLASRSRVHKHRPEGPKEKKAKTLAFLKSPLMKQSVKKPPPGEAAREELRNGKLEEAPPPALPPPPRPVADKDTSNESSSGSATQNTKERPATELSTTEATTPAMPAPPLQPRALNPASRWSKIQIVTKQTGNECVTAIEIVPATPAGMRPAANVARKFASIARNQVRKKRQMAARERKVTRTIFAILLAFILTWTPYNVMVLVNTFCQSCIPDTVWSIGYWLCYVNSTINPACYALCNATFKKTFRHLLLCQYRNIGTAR
# protocol_details: Antagonist activity at human M4 receptor expressed in HEK293T cells assessed as inhibition of carbachol-induced response by BRET based Gq protein engagement assay
# Type: cell-based, HEK-293T
Kindly state IC50 for each of the entries shown.
Output spec: scalar in nM, unitless text.

[in] Provide only the value of recorded IC50 for O=C1CCc2ccccc2N1CCCN1CCC(CCCCCCCCCO)CC1
[out] 589

[in] Provide only the value of recorded IC50 for CN1CCC=C(c2nsnc2OCCCCCCCC2CCN(CCCN3C(=O)CCc4ccccc43)CC2)C1
[out] 407

[in] Provide only the value of recorded IC50 for CN1CCC=C(c2nsnc2OCCCCCC2CCN(CCCN3C(=O)CCc4ccccc43)CC2)C1
[out] 447

[in] Provide only the value of recorded IC50 for CN1CCC=C(c2nsnc2OCCCCCCCCCC2CCN(CCCN3C(=O)CCc4ccccc43)CC2)C1
[out] 2450

[in] Provide only the value of recorded IC50 for O=C1CCc2ccccc2N1CCCN1CCC(CCCCCO)CC1
[out] 12300

[in] Provide only the value of recorded IC50 for CCCCC1CCN(CCCN2C(=O)CCc3ccccc32)CC1
[out] 2240

[in] Provide only the value of recorded IC50 for O=C1CCc2ccccc2N1CCCN1CCC(CCCCCCCO)CC1
[out] 1480

====

# assayed_target: UniProtKB P08173
# Sequence (P08173 whole entry): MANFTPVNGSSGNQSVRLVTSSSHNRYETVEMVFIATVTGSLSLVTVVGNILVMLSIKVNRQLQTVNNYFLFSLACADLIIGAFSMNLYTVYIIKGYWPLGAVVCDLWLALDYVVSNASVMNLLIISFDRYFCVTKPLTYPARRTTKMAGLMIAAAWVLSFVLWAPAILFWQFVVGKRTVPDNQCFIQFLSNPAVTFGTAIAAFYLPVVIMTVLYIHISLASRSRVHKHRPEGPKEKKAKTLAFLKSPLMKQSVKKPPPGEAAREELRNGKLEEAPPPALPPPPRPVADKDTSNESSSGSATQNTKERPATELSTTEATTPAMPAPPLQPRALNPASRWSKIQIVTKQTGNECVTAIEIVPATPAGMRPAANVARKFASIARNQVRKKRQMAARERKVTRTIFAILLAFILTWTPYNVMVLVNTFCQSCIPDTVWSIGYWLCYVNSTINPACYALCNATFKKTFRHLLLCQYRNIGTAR
# protocol_details: Agonist activity at human M4 receptor expressed in HEK293T cells by BRET based Gq protein activation assay
Returns: string. Value is T if measured EC50 is below 2000 nM, and F if it is greater than or equal to it.

[in] Given the entry CCCCC1CCN(CCCN2C(=O)CCc3ccccc32)CC1 , would its reported EC50 be below 2000 nM?
[out] T

[in] Given the entry CN1CCC=C(c2nsnc2OCCCCCCCC2CCN(CCCN3C(=O)CCc4ccccc43)CC2)C1 , would its reported EC50 be below 2000 nM?
[out] T

[in] Given the entry CN1CCC=C(c2nsnc2OCCCCCCCCCC2CCN(CCCN3C(=O)CCc4ccccc43)CC2)C1 , would its reported EC50 be below 2000 nM?
[out] F

[in] Given the entry CN1CCC=C(c2nsnc2OCCCCCC2CCN(CCCN3C(=O)CCc4ccccc43)CC2)C1 , would its reported EC50 be below 2000 nM?
[out] T

====

Kindly state pKi for each of the entries shown.
# assayed_target: Muscarinic acetylcholine receptor M5 (Homo sapiens, UniProt P08912)
# Sequence (P08912 whole entry): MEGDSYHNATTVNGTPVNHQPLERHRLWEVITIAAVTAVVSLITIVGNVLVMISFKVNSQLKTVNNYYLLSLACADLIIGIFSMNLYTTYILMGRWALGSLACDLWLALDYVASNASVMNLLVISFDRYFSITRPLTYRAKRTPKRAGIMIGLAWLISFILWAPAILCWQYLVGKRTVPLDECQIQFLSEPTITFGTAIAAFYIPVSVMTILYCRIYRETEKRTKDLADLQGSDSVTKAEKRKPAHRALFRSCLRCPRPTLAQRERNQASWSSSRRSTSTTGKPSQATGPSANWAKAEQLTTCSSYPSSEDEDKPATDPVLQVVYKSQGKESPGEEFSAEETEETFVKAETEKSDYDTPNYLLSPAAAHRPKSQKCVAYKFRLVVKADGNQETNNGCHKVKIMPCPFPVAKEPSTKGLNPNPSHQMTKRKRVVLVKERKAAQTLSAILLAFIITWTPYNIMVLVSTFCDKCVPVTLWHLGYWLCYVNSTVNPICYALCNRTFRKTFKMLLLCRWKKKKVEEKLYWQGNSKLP
A value of pKi is the negative decimal logarithm of a concentration given in moles per litre.

[in] Provide only the value of recorded pKi for CN1CCC=C(c2nsnc2OCCCCCC2CCN(CCCN3C(=O)CCc4ccccc43)CC2)C1
[out] 8.25

[in] Provide only the value of recorded pKi for CN1CCC=C(c2nsnc2OCCCCCCCC2CCN(CCCN3C(=O)CCc4ccccc43)CC2)C1
[out] 8.64

[in] Provide only the value of recorded pKi for CCCCC1CCN(CCCN2C(=O)CCc3ccccc32)CC1
[out] 5.27

[in] Provide only the value of recorded pKi for CN1CCC=C(c2nsnc2OCCCCCCCCCCCCCC2CCN(CCCN3C(=O)CCc4ccccc43)CC2)C1
[out] 7.51

====

# assayed_target: UniProtKB P11229
# Sequence (P11229 whole entry): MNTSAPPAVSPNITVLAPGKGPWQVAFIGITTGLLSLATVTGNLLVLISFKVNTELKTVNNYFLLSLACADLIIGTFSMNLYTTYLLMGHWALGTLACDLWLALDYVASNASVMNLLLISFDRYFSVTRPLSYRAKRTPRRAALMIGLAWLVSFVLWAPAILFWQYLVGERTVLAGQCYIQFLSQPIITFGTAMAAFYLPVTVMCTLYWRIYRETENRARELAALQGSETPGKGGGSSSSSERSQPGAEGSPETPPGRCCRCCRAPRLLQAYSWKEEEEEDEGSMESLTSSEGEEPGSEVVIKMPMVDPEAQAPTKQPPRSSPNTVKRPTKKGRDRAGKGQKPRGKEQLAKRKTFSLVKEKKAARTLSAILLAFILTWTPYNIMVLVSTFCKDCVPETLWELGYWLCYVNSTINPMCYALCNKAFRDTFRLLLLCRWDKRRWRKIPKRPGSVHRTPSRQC
# protocol_details: Agonist activity at human M1 receptor expressed in HEK293T cells by BRET based Gq protein engagement assay
readout_label: pEC50
A value of pEC50 is the negative decimal logarithm of a concentration given in moles per litre.

[in] Return reported pEC50 for target or system UniProtKB P11229, item CCCCC1CCN(CCCN2C(=O)CCc3ccccc32)CC1 .
[out] 7.22

[in] Return reported pEC50 for target or system UniProtKB P11229, item O=C1CCc2ccccc2N1CCCN1CCC(CCCCCO)CC1 .
[out] 6.95

[in] Return reported pEC50 for target or system UniProtKB P11229, item O=C1CCc2ccccc2N1CCCN1CCC(CCCCCCCO)CC1 .
[out] 6.64

[in] Return reported pEC50 for target or system UniProtKB P11229, item CN1CCC=C(c2nsnc2OCCCCCCCC2CCN(CCCN3C(=O)CCc4ccccc43)CC2)C1 .
[out] 6.78

====

Kindly state pIC50 for each of the entries shown.
# assayed_target: UniProtKB P08173
# Sequence (P08173 whole entry): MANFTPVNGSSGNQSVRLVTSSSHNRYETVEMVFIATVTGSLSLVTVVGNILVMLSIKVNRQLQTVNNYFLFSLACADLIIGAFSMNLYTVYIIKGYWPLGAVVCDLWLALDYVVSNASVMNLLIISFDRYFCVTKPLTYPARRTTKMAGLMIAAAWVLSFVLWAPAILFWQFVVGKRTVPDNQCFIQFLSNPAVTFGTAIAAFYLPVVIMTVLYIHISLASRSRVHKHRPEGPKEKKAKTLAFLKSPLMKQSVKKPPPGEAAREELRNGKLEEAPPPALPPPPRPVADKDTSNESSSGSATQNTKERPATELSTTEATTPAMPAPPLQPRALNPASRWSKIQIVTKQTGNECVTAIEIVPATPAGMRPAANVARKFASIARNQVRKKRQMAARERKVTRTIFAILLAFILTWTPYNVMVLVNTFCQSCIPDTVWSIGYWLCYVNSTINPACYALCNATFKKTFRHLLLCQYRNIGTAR
# protocol_details: Antagonist activity at human M4 receptor expressed in HEK293T cells assessed as inhibition of carbachol-induced response by beta-arrestin engagement assay
# Type: cell-based, HEK-293T
A value of pIC50 is the negative decimal logarithm of a concentration given in moles per litre.

[in] Provide only the value of recorded pIC50 for O=C1CCc2ccccc2N1CCCN1CCC(CCCCCCCO)CC1
[out] 6.10

[in] Provide only the value of recorded pIC50 for CN1CCC=C(c2nsnc2OCCCCCC2CCN(CCCN3C(=O)CCc4ccccc43)CC2)C1
[out] 6.45

[in] Provide only the value of recorded pIC50 for CN1CCC=C(c2nsnc2OCCCCCCCCCC2CCN(CCCN3C(=O)CCc4ccccc43)CC2)C1
[out] 4.02

[in] Provide only the value of recorded pIC50 for O=C1CCc2ccccc2N1CCCN1CCC(CCCCCCCCCO)CC1
[out] 6.09

[in] Provide only the value of recorded pIC50 for CN1CCC=C(c2nsnc2OCCCCCCCC2CCN(CCCN3C(=O)CCc4ccccc43)CC2)C1
[out] 6.84

[in] Provide only the value of recorded pIC50 for CCCCC1CCN(CCCN2C(=O)CCc3ccccc32)CC1
[out] 6.75

[in] Provide only the value of recorded pIC50 for O=C1CCc2ccccc2N1CCCN1CCC(CCCCCO)CC1
[out] 5.79
